Molecular target: T1, 4H3613-bH
T1 chain: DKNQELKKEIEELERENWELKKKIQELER
Experiment: two-hybrid library CCNG1;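 also: natural log of median RNA to DNA barcode read ratio; higher means stronger binding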
OUTCOME MEASURE: interaction score

Record excerpt, results attached:
BINDER: DENQELKKKNEELKREIWELEKEIQELER [4H1985-bH]
interaction score: -1.08
//
BINDER: DENQELKKEIEELEREIWELEKKNQELKR [4H1544-bH]
interaction score: 0.423
//
BINDER: DKNQELEKKNEELERKIWELKKEIQELER [4H3497-bH]
interaction score: -0.463
//
BINDER: DENQELEKKIEELKRENWELKKKIQELER [4H1373-bH]
interaction score: 0.423

[P] DENQELKKKIEELKRKIWELKKENQELER [4H1899-bH]
[Q] DKNQELEKKNEELEREIWELEKKIQELKR [4H3462-bH]
Lab note: record which item had the higher interaction score, P or Q . Lab log: write the label of the selected item as the result.
P
(P: -0.355, Q: -0.585)
